Listed compounds paired with reported EC50
Biological target: Peroxisome proliferator-activated receptor gamma (Homo sapiens, UniProt P37231)
Sequence (P37231 whole entry): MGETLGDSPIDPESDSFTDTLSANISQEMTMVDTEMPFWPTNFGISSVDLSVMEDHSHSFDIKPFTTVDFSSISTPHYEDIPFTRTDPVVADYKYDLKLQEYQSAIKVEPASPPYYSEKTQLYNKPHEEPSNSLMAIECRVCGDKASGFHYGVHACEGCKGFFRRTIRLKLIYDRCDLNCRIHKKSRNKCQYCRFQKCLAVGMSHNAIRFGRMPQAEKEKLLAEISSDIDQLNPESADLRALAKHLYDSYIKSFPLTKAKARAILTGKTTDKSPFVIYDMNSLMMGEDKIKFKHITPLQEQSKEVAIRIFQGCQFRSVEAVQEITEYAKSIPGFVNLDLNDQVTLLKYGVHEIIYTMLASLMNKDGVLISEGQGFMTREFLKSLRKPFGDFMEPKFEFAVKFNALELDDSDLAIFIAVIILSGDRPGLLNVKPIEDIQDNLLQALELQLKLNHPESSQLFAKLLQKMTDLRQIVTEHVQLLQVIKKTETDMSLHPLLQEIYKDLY
MEASUREMENT NAME: EC50

O=C(O)Cc1ccccc1OCC[C@@H]1Oc2ccccc2N(CCCCCCF)C1=O = 570 nM
CC(=O)NCCCCCCN1C(=O)C(CCOc2ccccc2CC(=O)O)Oc2ccccc21 (stereo not given) = > 5000 nM
C/C(CCCCN1C(=O)C(CCOc2ccccc2CC(=O)O)Oc2ccccc21)=N\O (stereo not given) = 10 nM
CC(C)N1C(=O)C(CCOc2ccccc2CC(=O)O)Oc2ccccc21 (stereo not given) = > 5000 nM
CCCN1C(=O)C(CCOc2ccccc2CC(=O)O)Oc2ccccc21 (stereo not given) = ~5000 nM
COCCCCN1C(=O)[C@@H](CCOc2ccccc2CC(=O)O)Oc2ccccc21 = 274 nM
CCCCCCN1C(=O)[C@H](CCOc2ccccc2CC(=O)O)Oc2ccccc21 = 1200 nM
NC(=O)CCCCN1C(=O)C(CCOc2ccccc2CC(=O)O)Oc2ccccc21 (stereo not given) = > 5000 nM
CCCNC(=O)CN1C(=O)C(CCOc2ccccc2CC(=O)O)Oc2ccccc21 (stereo not given) = > 5000 nM
CCCCCCCN1C(=O)C(CCOc2ccccc2CC(=O)O)Oc2ccccc21 (stereo not given) = 234 nM

* * *

# Lookup of reported half-life at 5 µM keyed by entry
Assay: In vitro metabolic stability at 5 uM was determined by incubating with human liver microsomes at 37 degree C
Type: ADME, Microsome
MEASUREMENT NAME: half-life at 5 µM (h)

O=C(O)Cc1ccccc1OCC[C@H]1Oc2ccccc2N(CCCCCCF)C1=O = 1.85
O=C(O)Cc1ccccc1OCCC1Oc2ccccc2N(CCCCCCCO)C1=O (centres undefined) = 1.27
CCCCCCN1C(=O)[C@@H](CCOc2ccccc2CC(=O)O)Oc2ccccc21 = 1.22
CCCCCCN1C(=O)C(CCOc2ccccc2CC(=O)O)Oc2ccccc21 (centres undefined) = 0.883
CC(=O)CCCCN1C(=O)C(CCOc2ccccc2CC(=O)O)Oc2ccccc21 (centres undefined) = 0.85
C/C(CCCCN1C(=O)C(CCOc2ccccc2CC(=O)O)Oc2ccccc21)=N\O (centres undefined) = 2.47
O=C(O)Cc1ccccc1OCCC1Oc2ccccc2N(CCCCCCO)C1=O (centres undefined) = 0.95
O=C(O)Cc1ccccc1OCCC1Oc2ccccc2N(CCCCCCF)C1=O (centres undefined) = 1.27

* * *

Items are presented alongside their recorded bioavailability.
Assay: Oral bioavailability in rat (dose 30 mg/kg)
Type: ADME, organism-based
Settings: in vivo
MEASUREMENT NAME: bioavailability (%)

COCCCCN1C(=O)[C@@H](CCOc2ccccc2CC(=O)O)Oc2ccccc21 = 41
CCCCCCN1C(=O)C(CCOc2ccccc2CC(=O)O)Oc2ccccc21 (centres undefined) = 115
CC(=O)CCCCN1C(=O)C(CCOc2ccccc2CC(=O)O)Oc2ccccc21 (centres undefined) = 27
C/C(CCCCN1C(=O)C(CCOc2ccccc2CC(=O)O)Oc2ccccc21)=N\O (centres undefined) = 16
O=C(O)Cc1ccccc1OCCC1Oc2ccccc2N(CCCCCCCO)C1=O (centres undefined) = 13
O=C(O)Cc1ccccc1OCCC1Oc2ccccc2N(CCCCCCO)C1=O (centres undefined) = 4
O=C(O)Cc1ccccc1OCC[C@H]1Oc2ccccc2N(CCCCCCF)C1=O = 39
CCCCCCN1C(=O)[C@@H](CCOc2ccccc2CC(=O)O)Oc2ccccc21 = 95
O=C(O)Cc1ccccc1OCCC1Oc2ccccc2N(CCCCCCF)C1=O (centres undefined) = 100

* * *

Biological target: Peroxisome proliferator-activated receptor gamma (Homo sapiens)
pEC50: −log10 of the molar value.
We begin with a simple list: items and their reported pEC50.
MEASUREMENT NAME: pEC50

CC(F)(F)CCCCN1C(=O)[C@@H](CCOc2ccccc2CC(=O)O)Oc2ccccc21 = 6.53
CC(C)(C#N)CCCCN1C(=O)C(CCOc2ccccc2CC(=O)O)Oc2ccccc21 (centres undefined) = 6.44
O=C(O)Cc1ccccc1OCCC1Oc2ccccc2N(CCCCCO)C1=O (centres undefined) = 6.00
CC(=O)CCCCCN1C(=O)C(CCOc2ccccc2CC(=O)O)Oc2ccccc21 (centres undefined) = 6.58
C=CCCCCN1C(=O)C(CCOc2ccccc2CC(=O)O)Oc2ccccc21 (centres undefined) = 6.68
CC(F)(F)CCCCCN1C(=O)C(CCOc2ccccc2CC(=O)O)Oc2ccccc21 (centres undefined) = 6.27
CC(C)(CCCCN1C(=O)C(CCOc2ccccc2CC(=O)O)Oc2ccccc21)C(=O)O (centres undefined) = 6.00
O=C(O)Cc1ccccc1OCCC1Oc2ccccc2N(CCCCCCF)C1=O (centres undefined) = 6.93
CC(F)(F)CCCCN1C(=O)[C@H](CCOc2ccccc2CC(=O)O)Oc2ccccc21 = 6.00
CC(O)CCCCN1C(=O)C(CCOc2ccccc2CC(=O)O)Oc2ccccc21 (centres undefined) = 6.00
CCCCCN1C(=O)C(CCOc2ccccc2CC(=O)O)Oc2ccccc21 (centres undefined) = 6.61
O=C(O)Cc1ccccc1OCC[C@H]1Oc2ccccc2N(CCCCCCF)C1=O = 6.82
CCCSCCN1C(=O)C(CCOc2ccccc2CC(=O)O)Oc2ccccc21 (centres undefined) = 6.42
CCCCCCCCN1C(=O)C(CCOc2ccccc2CC(=O)O)Oc2ccccc21 (centres undefined) = 6.52
CCCCCCN1C(=O)C(CCOc2ccccc2CC(=O)O)Oc2ccccc21 (centres undefined) = 7.00
O=C(O)Cc1ccccc1OCCC1Oc2ccccc2N(CCC2CCCCC2)C1=O (centres undefined) = 6.52
CC(C)(C)CCCCN1C(=O)C(CCOc2ccccc2CC(=O)O)Oc2ccccc21 (centres undefined) = 6.00
O=C(O)Cc1ccccc1OCCC1Oc2ccccc2N(CCCCCCCF)C1=O (centres undefined) = 6.14

* * *

Parameter: pEC50. Scope: all listed entries.
Target: Peroxisome proliferator-activated receptor gamma (Homo sapiens)
Sequence (P37231 whole entry): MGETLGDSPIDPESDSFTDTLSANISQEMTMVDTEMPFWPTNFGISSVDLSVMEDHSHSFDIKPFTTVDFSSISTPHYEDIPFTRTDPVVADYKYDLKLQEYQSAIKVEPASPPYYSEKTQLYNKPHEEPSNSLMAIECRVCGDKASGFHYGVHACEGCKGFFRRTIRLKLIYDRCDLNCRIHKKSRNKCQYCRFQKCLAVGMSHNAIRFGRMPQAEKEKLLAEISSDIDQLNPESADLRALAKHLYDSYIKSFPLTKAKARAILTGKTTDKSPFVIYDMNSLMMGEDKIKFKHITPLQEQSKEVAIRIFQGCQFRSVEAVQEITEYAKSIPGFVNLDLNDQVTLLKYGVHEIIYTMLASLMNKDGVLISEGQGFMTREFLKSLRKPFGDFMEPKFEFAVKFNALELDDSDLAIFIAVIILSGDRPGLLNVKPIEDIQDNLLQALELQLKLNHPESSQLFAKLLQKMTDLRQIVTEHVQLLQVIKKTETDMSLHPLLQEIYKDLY
pEC50: −log10 of the molar value.
MEASUREMENT NAME: pEC50

CCCCCCCCCN1C(=O)C(CCOc2ccccc2CC(=O)O)Oc2ccccc21 (stereo unspecified) = ~5.30
NC(=O)CCCCCN1C(=O)C(CCOc2ccccc2CC(=O)O)Oc2ccccc21 (stereo unspecified) = ~5.30
CCOCCCN1C(=O)C(CCOc2ccccc2CC(=O)O)Oc2ccccc21 (stereo unspecified) = ~5.30
CO/N=C(\C)CCCCN1C(=O)C(CCOc2ccccc2CC(=O)O)Oc2ccccc21 (stereo unspecified) = ~5.30
CNC(=O)CCCN1C(=O)C(CCOc2ccccc2CC(=O)O)Oc2ccccc21 (stereo unspecified) = < 5.30
CCN1C(=O)C(CCOc2ccccc2CC(=O)O)Oc2ccccc21 (stereo unspecified) = < 5.30
CC(C)CN1C(=O)C(CCOc2ccccc2CC(=O)O)Oc2ccccc21 (stereo unspecified) = ~5.30
O=C(O)Cc1ccccc1OCCC1Oc2ccccc2N(CC(=O)O)C1=O (stereo unspecified) = < 5.30
O=C(O)Cc1ccccc1OCCC1Oc2ccccc2N(CCC2CCCC2)C1=O (stereo unspecified) = ~5.30
O=C(O)CCCCN1C(=O)C(CCOc2ccccc2CC(=O)O)Oc2ccccc21 (stereo unspecified) = < 5.30
CCCCN1C(=O)C(CCOc2ccccc2CC(=O)O)Oc2ccccc21 (stereo unspecified) = ~5.30
